Experiment: Cytotoxicity against human H1-HeLa cells assessed as reduction in cell viability by MTT assay
Assay type: toxicity, cell-based
Details: H1-HeLa cells
REPORTED_METRIC: CC50

>>> measured_value("Cc1cc(CCCOc2c(C)cc(-c3noc(C(F)(F)F)n3)cc2C)on1 [PLECONARIL]")
"20.8 µM"
>>> measured_value("CC(C)(C)C1CCc2c(sc3c2c(=O)n(-c2ccccc2)c2nncn32)C1 (stereo unspecified)")
"18.7 µM"
>>> measured_value("CCCCn1c(=O)c2c3c(sc2n2cnnc12)CC(C(C)(C)C)CC3 (stereo unspecified)")
"> 100 µM"
>>> measured_value("CCn1c(=O)c2c3c(sc2n2cnnc12)CC(C(C)(C)C)CC3 (stereo unspecified)")
"> 100 µM"
>>> measured_value("CC(C)CCn1c(=O)c2c3c(sc2n2cnnc12)CC(C(C)(C)C)CC3 (stereo unspecified)")
"> 100 µM"
>>> measured_value("Cn1c(=O)c2c3c(sc2n2cnnc12)CC(C(C)(C)C)CC3 (stereo unspecified)")
"> 100 µM"
>>> measured_value("CC(C)(C)C1CCc2c(sc3c2c(=O)n(C2CC2)c2nncn32)C1 (stereo unspecified)")
"35.5 µM"
>>> measured_value("CC(C)Cn1c(=O)c2c3c(sc2n2cnnc12)CC(C(C)(C)C)CC3 (stereo unspecified)")
"> 100 µM"
>>> measured_value("CCCCCCn1c(=O)c2c3c(sc2n2cnnc12)CC(C(C)(C)C)CC3 (stereo unspecified)")
"> 100 µM"
>>> measured_value("CCCn1c(=O)c2c3c(sc2n2cnnc12)CC(C(C)(C)C)CC3 (stereo in doubt)")
"77.1 µM"
>>> measured_value("CC(C)(C)C1CCc2c(sc3c2c(=O)n(C2CCCC2)c2nncn32)C1 (stereo unspecified)")
"> 100 µM"
